Assay: Selectivity ratio of IC50 for MMP10 to IC50 for MMP13
Recorded Ratio IC50 values for a group of molecules are listed next.
Keep it simple and answer with nothing but the number.

Worked cases, answers included:
CPD_SMILES	Ratio IC50
CNC(=O)[C@H](NC(=O)c1ccc(-c2cccc(CNC(=O)c3ccnc(C(F)(F)F)n3)c2)o1)C1CCCCC1	370
CCc1cncc(C(=O)NCc2cccc(-c3ccc(C(=O)N[C@@H](C(=O)NC)C4CCCCC4)o3)c2)c1	45

Ask: Suppose we examine the molecule `CNC(=O)[C@H](NC(=O)c1ccc(-c2cccc(CNC(=O)c3ncccc3C)c2)o1)C1CCCCC1` ; what Ratio IC50 value has been reported?
Reply: 31
